Biological target: UniProt P06239
Sequence (P06239 whole entry): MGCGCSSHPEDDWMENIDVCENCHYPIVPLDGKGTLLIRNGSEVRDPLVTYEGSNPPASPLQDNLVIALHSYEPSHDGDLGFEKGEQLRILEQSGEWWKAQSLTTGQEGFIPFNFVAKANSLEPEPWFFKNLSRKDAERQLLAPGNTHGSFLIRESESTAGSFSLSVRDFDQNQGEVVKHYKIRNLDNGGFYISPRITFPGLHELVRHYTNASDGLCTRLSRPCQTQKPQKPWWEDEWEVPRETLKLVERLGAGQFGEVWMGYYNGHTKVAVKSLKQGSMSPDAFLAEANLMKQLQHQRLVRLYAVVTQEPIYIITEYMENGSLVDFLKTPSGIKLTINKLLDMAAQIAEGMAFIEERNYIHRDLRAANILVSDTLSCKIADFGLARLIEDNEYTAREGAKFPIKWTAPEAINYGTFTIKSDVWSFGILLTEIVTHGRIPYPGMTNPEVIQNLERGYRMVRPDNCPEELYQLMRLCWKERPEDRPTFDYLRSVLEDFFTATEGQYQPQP
pIC50: −log10 of the molar value.

STRUCTURE_NOTATION: N#CC(=C(/N)Sc1ccccc1N)/C(C#N)=C(\N)Sc1ccccc1N
pIC50: < 4.52
